- System: influenza virus
- assayText: microbe, parasite or virus in culture
- Type: cell-based, influenza virus Type A/USSR 90 (HeLa cell cultures)
- settings: unidentified influenza virus, read-out: % Inhibition of Hemadsorption Foci, Test Compound Conc. >100 μg/ml
Counter-ions that a name gives are not always drawn.
readoutType: inhibition at 100 µg/mL (%)
Could you give me the number in %? Just the number is fine.

Ask: Field request: inhibition at 100 µg/mL | item: OCCn1cnc2c(=S)[nH]cnc21
Result: 10

Ask: Next entry: CCCCCC[C@H]([C@H](C)O)n1cnc2c(=O)[nH]cnc21 (relative stereo)
Result: 100

Ask: Next entry: CCCCCCC(CO)n1cnc2c(=O)[nH]cnc21 (stereo not drawn)
Result: 60

Ask: Next entry: OCCn1cnc2c(S)ncnc21
Result: 65

Ask: Next entry: CC(CO)n1cnc2c(Cl)ncnc21 (stereo not drawn) [NPT 15423, 9-(1-HYDROXY-2-PROPANE)-6-CHLOROPURINE]
Result: 6

Ask: Next entry: CCCCCC[C@H]([C@H](C)O)n1cnc2c(N)ncnc21 (relative stereo) [NPT 15426, HCl]
Result: 100

---

Field: Maximum Percent Change, Mitogen Induced (PHA) Human Lymph. Prolif.. Provide a value for each of the molecules that follow.
- Test system: human peripheral blood lymphocytes
- assayText: Mitogen (PHA) induced human lymphocyte proliferation
- Type: cell-based
- settings: 1.0-10 (unit not given); plus = immunostimulating, minus = immunoinhibiting, 0 = neither
Structures can show the parent of a compound that is named as a salt.
Could you give me the number in %? Just the number is fine.

Ask: Field request: Maximum Percent Change, Mitogen Induced (PHA) Human Lymph. Prolif. | item: CCCCCCC(CO)n1cnc2c(=O)[nH]cnc21 (stereo not shown)
Result: 0

Ask: Next entry: O=c1[nH]cnc2c1ncn2CCO [NPT 15425, 9-HYDROXYETHYL HYPOXANTHINE]
Result: 0

Ask: Next entry: CCCCCC[C@H]([C@H](C)O)n1cnc2c(N)ncnc21 (relative stereo) [NPT 15426, HCl]
Result: -41

Ask: Next entry: CCCCCC[C@H]([C@H](C)O)n1cnc2c(=O)[nH]cnc21 (relative stereo) [NPT 15410]
Result: 60

Ask: Next entry: CC(O)Cn1cnc2c(N)ncnc21 (stereo not shown) [NPT 15431, 9-(2-HYDROXY-1-PROPYL)ADENINE]
Result: 0

Ask: Next entry: OCCn1cnc2c(=S)[nH]cnc21
Result: 45

Ask: Next entry: CCCCCC[C@H]([C@H](C)O)n1cnc2c(=O)[nH]cnc21 (relative stereo) [NPT 15392]
Result: 20

Ask: Next entry: CC(O)Cn1cnc2c(=O)[nH]cnc21 (stereo not shown) [NPT 15446, 9-(2-HYDROXY-1-PROPYL)HYPOXANTHINE]
Result: 0

Ask: Next entry: CC(CO)n1cnc2c(N)ncnc21 (stereo not shown) [NPT 15433, 9-(1-HYDROXY-2-PROPYL)ADENINE]
Result: 0

---

Field: Maximum Percent Change, Lymphokine Induced (MMF) Guinea Pig Mac. Prolif.. Provide a value for each of the compounds that follow.
- System: guinea pig macrophages
- assayText: Lymphokine (MMF) induced guinea pig macrophage proliferation
- Type: cell-based
- settings: 1.0-10 (unit not given); plus = immunostimulating, minus = immunoinhibiting, 0 = neither
Could you give me the number in %? Just the number is fine.

Ask: Field request: Maximum Percent Change, Lymphokine Induced (MMF) Guinea Pig Mac. Prolif. | item: CCCCCC[C@H]([C@H](C)O)n1cnc2c(=O)[nH]cnc21 (relative stereo) [NPT 15392]
Result: 23

Ask: Next entry: CCCCCC[C@H]([C@H](C)O)n1cnc2c(=O)[nH]cnc21 (relative stereo) [NPT 15410]
Result: 23

Ask: Next entry: CC(CO)n1cnc2c(=O)[nH]cnc21 (stereo not shown) [NPT 15443, 9-(1-HYDROXY-2-PROPYL)HYPOXANTHINE]
Result: 0

Ask: Next entry: CC(O)Cn1cnc2c(=O)[nH]cnc21 (stereo not shown) [NPT 15446, 9-(2-HYDROXY-1-PROPYL)HYPOXANTHINE]
Result: 0
